- run.description: qHTS for Inhibitors of TGF-b: CCL64 Cells Orthogonal Assay for Cherry Picks; further: nearly all actives have a fitted effect of over 65% in size
- experimental.context: CCL64 CAGA-GFP reporter, TGF-b stimulated, GFP fluorescence, 18 h; series mostly up to 46.1 µM
The whole screen tested about 1,600 compounds, of which about 650 (41%) were called active. Inconclusive results (about 39%) are left out. The call rests on the fitted dose curve; in most records, active means well fitted inhibition curve with a large enough effect; inconclusive means small, poorly fitted or top-dose-only effect; inactive means no such curve, though single readings can be large or run the other way. So high a share suggests a set chosen from earlier hits. Many of the other results were omitted from the sample, so actives are more common in it than they were.
Reply using exactly one outcome from 1 = active, 0 = inactive

Please review the following examples before continuing.
O=C(Nc1ccc(C2CC2(Cl)Cl)cc1)c1cccc([N+](=O)[O-])c1 (stereo not given) = 1
CC1CCc2c(nc3ncnn3c2Nc2ccc(OC(F)(F)F)cc2)C1 (stereo not given) = 0
Clc1ccc2c(c1)C1=C(C(c3ccncc3)O2)C(c2ccc(Br)cc2)n2ncnc2N1 (stereo not given) = 1
CC(=O)c1ccc(-c2cnc3c(NC=O)cc(-c4cccc(NS(C)(=O)=O)c4)cn23)cc1 = 1
COc1cccc(CNc2nc(NCc3ccccc3OC)nc3ccsc23)c1 = 1
COc1ccc(-c2csc(NC3OC(=O)c4ccccc43)n2)cc1 (stereo not given) = 1

Q: Each compound tested received a call. Report the one for COc1ccc2nc(N3CCN(C(=O)c4ccc([N+](=O)[O-])o4)CC3)sc2c1 .
A: 0

Q: What classification did Cc1nc(/N=C(\N)NC(=O)NC2CCCCC2)nc2ccccc12 end up with in this test?
A: 1

Q: Given CN(C)c1nc(N)nc(CSc2nnnn2-c2cccc3ccccc23)n1 , state the outcome it received in this test.
A: 0

Q: Per the records of this test, what outcome belongs to Clc1ccc(Nc2nc(-c3cccs3)cs2)nc1 ?
A: 1
